Target: Abeta42 beta amyloid peptide (UniProt P05067)
Sequence (P05067 672-713 limits assumed): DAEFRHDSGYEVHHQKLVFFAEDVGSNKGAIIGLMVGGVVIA
Test: competition ELISA, NS0 supernatant titrated against 0.25 ug/ml biotinylated mouse 6E10 (mouse MDT-2007) on coated beta amyloid; IC50 normalised to mouse 6E10 (=1; <1 improved)
MEASUREMENT_NAME: fold difference in IC50 relative to mouse 6E10 (fold)

[
  {
    "BINDER": "Composite human antibody variant VH4/VK3 (antibody, human IgG1, V domains shown) VH: QVQLVQSGAEVKKPGASVKVSCTASGFNIKDTYIHWVRQARGQRLEWIGRFDPVNVNTRYDSRFRGRVTITSDASTNTAYMELSSLRSEDTAVYYCSRSYYNGRRRFTYWGQGTLVTVSS VL: DIVMTQSPSSLTASVGDRVTITCKASQSLLSSGNQKNYLTWYQQKPGQPPKLLIYWASIRESGVPDRFSGSGSGTDFTLTISSLQAEDVAVYYCQNDYNYPFTFGQGTKLEIK",
    "RECORDED_MEASUREMENT": 1.36
  }
]
